In this section we review reported IC50 values for a set of compounds.
- system.tested: Itk (Homo sapiens, UniProt Q08881)
- Construct: Kinases are expressed as either kinase domains or full length constructs; made in house
- Sequence (Q08881 1-620): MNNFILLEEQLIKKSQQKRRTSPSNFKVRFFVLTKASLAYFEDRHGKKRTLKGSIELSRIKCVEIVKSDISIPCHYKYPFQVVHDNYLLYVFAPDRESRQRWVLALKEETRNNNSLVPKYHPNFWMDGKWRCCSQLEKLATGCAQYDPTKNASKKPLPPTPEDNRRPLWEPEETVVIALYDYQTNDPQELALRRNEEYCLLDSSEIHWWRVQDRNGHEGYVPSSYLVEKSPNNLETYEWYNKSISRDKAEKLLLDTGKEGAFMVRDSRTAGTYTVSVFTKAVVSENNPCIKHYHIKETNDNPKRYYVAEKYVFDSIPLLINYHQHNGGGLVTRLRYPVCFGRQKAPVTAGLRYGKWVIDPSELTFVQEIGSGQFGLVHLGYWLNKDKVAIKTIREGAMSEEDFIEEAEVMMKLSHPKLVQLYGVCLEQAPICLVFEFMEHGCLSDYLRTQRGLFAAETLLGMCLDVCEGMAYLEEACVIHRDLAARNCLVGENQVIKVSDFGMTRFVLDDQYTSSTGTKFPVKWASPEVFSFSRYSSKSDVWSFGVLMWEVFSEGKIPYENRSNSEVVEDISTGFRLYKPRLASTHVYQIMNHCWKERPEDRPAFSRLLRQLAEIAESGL
- measurement.notes: Kinase inhibition assay (33P transfer), Itk
- Type: biochemical
- protocol.conditions: Table 3, class symbols; read-out: Itk-1

| compound | IC50 |
| --- | --- |
| O=C(O)CCc1cccc(Nc2ncnc(Nc3cc(-c4ccco4)[nH]n3)n2)c1 [Compound 887] | 6.13 to 8.94 µM |
| COC(=O)c1ccc(-c2cc(Nc3ncnc(NCCNC(C)=O)n3)[nH]n2)cc1 [Compound 819] | > 11.4 µM |
| CN(c1cccc(Cl)c1)c1ncnc(Nc2ccc(OCCO)cc2)n1 [Compound 641] | > 12.1 µM |
| COc1ccc(Nc2ncnc(N(C)c3ccccc3)n2)cc1OC [Compound 797] | > 13.3 µM |

-- ask Param readout= IC50; system= Itk (Homo sapiens, UniProt Q08881); entry= COc1cccc(Nc2ncnc(Nc3ccc4c(cnn4Cc4ccccc4)c3)n2)c1 [Compound 904] ; returns value.
-- reply 8.26 to 10.6 µM

-- ask Form entry - test system: Itk (Homo sapiens, UniProt Q08881); read-out: IC50; compound: c1ccc(CNc2ncnc(Nc3cc(-c4ccco4)n[nH]3)n2)nc1 [Compound 995]
-- reply 10.5 to 13.5 µM

-- ask Hi! What's the reported IC50 for Fc1ccc(CNc2ncnc(Nc3cc(-c4ccco4)n[nH]3)n2)cc1 [Compound 996] on Itk (Homo sapiens, UniProt Q08881)?
-- reply > 12.8 µM

-- ask Write down the reported IC50 of COc1cc(Nc2ncnc(-c3cccnc3Nc3ccc(Cl)cc3C)n2)cc(OC)c1OC [Compound 834] , test system: Itk (Homo sapiens, UniProt Q08881).
-- reply > 9.4 µM

-- ask Can you look up IC50 on Itk (Homo sapiens, UniProt Q08881) for Fc1ccc(CNc2ncccc2-c2ncnc(Nc3cccc(Cn4ccnc4)c3)n2)cc1 [Compound 1109] ?
-- reply < 0.884 µM

-- ask Param readout= IC50; system= Itk (Homo sapiens, UniProt Q08881); entry= COc1ccc(Nc2ncnc(Nc3ccc4c(c3)CCC4)n2)cc1OC [Compound 896] ; returns value.
-- reply 6.6 to 9.63 µM

-- ask Request - read-out IC50 | tested on Itk (Homo sapiens, UniProt Q08881) | compound NC(=O)Cc1cccc(Nc2ncnc(-n3c(NCc4ccccc4)nc4ccccc43)n2)c1 [Compound 967]
-- reply 7.77 to 9.99 µM

###

- system.tested: c-Met (Homo sapiens, UniProt P08581)
- Construct: Kinases are expressed as either kinase domains or full length constructs; made in house
- Sequence (P08581 25-1390): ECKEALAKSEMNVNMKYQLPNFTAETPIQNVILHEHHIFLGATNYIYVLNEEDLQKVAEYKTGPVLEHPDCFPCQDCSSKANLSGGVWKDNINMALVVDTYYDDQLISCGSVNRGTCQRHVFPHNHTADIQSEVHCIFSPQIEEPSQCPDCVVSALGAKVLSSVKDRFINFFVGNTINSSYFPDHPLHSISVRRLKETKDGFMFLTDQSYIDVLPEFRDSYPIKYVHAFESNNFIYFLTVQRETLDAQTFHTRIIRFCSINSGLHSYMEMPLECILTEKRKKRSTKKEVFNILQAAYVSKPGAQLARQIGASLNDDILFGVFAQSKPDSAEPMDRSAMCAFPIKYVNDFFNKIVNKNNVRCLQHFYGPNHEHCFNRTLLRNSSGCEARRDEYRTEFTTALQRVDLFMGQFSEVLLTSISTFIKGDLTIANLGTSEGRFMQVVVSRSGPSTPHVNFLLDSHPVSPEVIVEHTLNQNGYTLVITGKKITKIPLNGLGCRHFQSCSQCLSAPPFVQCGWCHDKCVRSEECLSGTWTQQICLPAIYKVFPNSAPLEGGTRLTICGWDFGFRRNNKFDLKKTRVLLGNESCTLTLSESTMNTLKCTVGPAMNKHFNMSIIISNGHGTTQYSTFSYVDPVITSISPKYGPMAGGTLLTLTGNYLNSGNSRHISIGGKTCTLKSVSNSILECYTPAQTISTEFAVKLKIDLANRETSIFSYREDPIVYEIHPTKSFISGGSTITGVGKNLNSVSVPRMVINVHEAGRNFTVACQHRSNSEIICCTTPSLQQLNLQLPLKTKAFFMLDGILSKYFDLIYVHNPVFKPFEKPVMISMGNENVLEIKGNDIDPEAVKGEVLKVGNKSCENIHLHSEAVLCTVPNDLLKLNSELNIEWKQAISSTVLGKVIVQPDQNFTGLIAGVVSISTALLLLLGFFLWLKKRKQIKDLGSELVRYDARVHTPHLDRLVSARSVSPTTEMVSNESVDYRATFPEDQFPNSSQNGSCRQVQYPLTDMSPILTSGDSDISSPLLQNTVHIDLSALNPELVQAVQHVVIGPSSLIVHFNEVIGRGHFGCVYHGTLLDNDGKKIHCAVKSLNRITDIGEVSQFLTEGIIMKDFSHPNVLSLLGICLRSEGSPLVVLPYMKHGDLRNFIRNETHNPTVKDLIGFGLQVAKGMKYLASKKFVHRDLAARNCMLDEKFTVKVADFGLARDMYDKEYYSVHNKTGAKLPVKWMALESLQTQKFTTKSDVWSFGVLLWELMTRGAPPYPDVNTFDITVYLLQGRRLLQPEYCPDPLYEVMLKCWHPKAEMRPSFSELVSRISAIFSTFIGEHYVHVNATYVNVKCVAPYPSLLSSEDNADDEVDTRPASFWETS
- measurement.notes: Kinase inhibition assay (33P transfer), c-Met
- Assay type: biochemical
- protocol.conditions: Table 2, kinase inhibition class; read-out: Met-1
- Protocol: The inhibitor compounds described herein are screened in the following manner. […] Kinases are expressed as either kinase domains or full length constructs fused to glutathione S-transferase (GST) or polyHistidine tagged fusion proteins in either E. colior Baculovirus-High Five expression systems. […] Kinase activity and inhibition are measured essentially by established protocols (Braunwalder et al., 1996). […]
Below, each of the compounds is paired with its reported IC50 value.

Example entries begin here.
| mol.smiles | IC50 |
| --- | --- |
| COc1cc(Nc2ncnc(Nc3ccc(N)cc3)n2)cc(OC)c1OC | 1.09 to 6.51 µM |
| NC(=O)c1cccc(Nc2ncnc(Nc3cc(-c4ccco4)n[nH]3)n2)c1 | 1.1 to 6.62 µM |
| COc1cc(Nc2ncnc(-n3c(N)nc4ccccc43)n2)cc(OC)c1 | > 12.4 µM |
| CN1CCN(Cc2cccc(Nc3ncnc(Nc4ccc5c(cnn5Cc5ccccc5)c4)n3)c2)CC1 | > 8.9 µM |
| COc1cc(Nc2ncnc(NCCc3ccccc3)n2)cc(OC)c1OC | > 11.8 µM |
| COc1cc(Nc2ncnc(-n3c(Nc4ccc(C#N)cc4)nc4ccccc43)n2)cc(OC)c1OC | 7.08 to 9.1 µM |

-- ask Lab note: need IC50 for COc1cc(Nc2ncnc(-n3c(N[C@@H](CO)c4ccccc4)nc4ccccc43)n2)cc(OC)c1OC on c-Met (Homo sapiens, UniProt P08581), anyone have it?
-- reply > 8.76 µM

-- ask # value lookup — system c-Met (Homo sapiens, UniProt P08581), readout IC50, item COc1cc(Nc2ncnc(-c3c(O)[nH]c4ccc(Cl)cc34)n2)cc(OC)c1OC
-- reply 8.18 to 10.5 µM

###

- system.tested: c-Met (Homo sapiens, UniProt P08581)
- Construct: Kinases are expressed as either kinase domains or full length constructs; made in house
- measurement.notes: Kinase inhibition assay (33P transfer), c-Met
- Format: biochemical
- protocol.conditions: Table 2, class symbols A-E; read-out: Met-1
measured.quantity: IC50

-- ask Name the recorded IC50 for Fc1cccc(CNc2nc3ccccc3n2-c2ncnc(Nc3cccc(Cn4ccnn4)c3)n2)c1 [Compound 964] .
-- reply > 9.14 µM

-- ask Which IC50 is listed for COCCNc1ncnc(Nc2cc(-c3ccc(C(=O)OC)cc3)n[nH]2)n1 [Compound 816] ?
-- reply > 12.2 µM

-- ask Which value of IC50 has been reported for COc1cc(Nc2ncnc(-c3cccnc3Nc3ccccc3)n2)cc(OC)c1OC [Compound 1092] in the records?
-- reply > 10.5 µM

-- ask I'd like to know its IC50. The compound in question is CC(C)Nc1ncccc1-c1ncnc(Nc2cccc(Cn3ccnn3)c2)n1 [Compound 1098]
-- reply 6.19 to 9.03 µM

###

- system.tested: IGFR-1 (Homo sapiens, UniProt P08069)
- Construct: Kinases are expressed as either kinase domains or full length constructs; made in house
- Sequence (P08069 31-1367): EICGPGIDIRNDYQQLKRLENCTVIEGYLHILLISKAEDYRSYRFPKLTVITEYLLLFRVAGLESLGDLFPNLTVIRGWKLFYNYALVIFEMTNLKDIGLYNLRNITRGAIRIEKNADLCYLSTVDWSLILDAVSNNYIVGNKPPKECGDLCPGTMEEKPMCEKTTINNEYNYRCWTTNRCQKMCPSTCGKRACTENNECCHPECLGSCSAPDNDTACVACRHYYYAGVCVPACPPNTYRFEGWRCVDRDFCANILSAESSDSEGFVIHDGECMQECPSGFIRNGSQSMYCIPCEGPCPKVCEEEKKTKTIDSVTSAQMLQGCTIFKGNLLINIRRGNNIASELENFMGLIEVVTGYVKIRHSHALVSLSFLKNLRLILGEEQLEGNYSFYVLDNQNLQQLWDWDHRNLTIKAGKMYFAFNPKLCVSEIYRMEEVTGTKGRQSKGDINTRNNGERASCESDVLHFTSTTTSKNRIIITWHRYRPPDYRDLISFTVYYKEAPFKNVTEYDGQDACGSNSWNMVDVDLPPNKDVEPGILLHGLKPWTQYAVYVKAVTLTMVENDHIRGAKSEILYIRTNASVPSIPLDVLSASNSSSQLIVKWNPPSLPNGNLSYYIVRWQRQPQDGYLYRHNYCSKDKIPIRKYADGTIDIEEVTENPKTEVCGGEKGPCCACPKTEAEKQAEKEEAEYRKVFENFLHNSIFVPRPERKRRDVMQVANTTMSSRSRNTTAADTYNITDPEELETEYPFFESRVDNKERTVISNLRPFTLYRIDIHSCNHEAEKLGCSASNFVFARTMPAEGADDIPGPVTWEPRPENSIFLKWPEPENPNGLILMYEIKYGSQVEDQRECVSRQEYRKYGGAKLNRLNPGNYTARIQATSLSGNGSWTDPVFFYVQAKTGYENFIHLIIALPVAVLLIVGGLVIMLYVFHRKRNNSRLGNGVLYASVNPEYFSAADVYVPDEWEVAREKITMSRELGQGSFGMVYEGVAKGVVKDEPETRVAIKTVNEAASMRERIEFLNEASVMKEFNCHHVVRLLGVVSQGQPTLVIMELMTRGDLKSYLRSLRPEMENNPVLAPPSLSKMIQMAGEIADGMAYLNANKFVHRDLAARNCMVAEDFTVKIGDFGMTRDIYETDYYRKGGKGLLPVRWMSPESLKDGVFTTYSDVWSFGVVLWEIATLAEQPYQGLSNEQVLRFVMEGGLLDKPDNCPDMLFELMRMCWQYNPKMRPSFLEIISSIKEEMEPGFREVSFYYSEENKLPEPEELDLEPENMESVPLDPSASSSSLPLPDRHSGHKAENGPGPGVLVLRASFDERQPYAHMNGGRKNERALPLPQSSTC
- measurement.notes: Kinase inhibition assay, IGFR-1 (Table 2)
- Type: biochemical
- protocol.conditions: Table 2, kinase inhibition class
measured.quantity: IC50

Recorded results for 6 molecules are shown here.
| molecule | IC50 |
| --- | --- |
| COc1cc(Nc2ncnc(Nc3ccc(Br)c4ccccc34)n2)cc(OC)c1OC [Compound 613] | 7.26 to 9.33 µM |
| COc1ccc(N(C)c2ncnc(-n3c(N)nc4ccccc43)n2)cc1 [Compound 663] | > 13 µM |
| COc1ccc(Nc2ncnc(NCCNC(C)=O)n2)cc1OC [Compound 784] | > 13.5 µM |
| Nc1nc2ccccc2n1-c1ncnc(Nc2cccc(CC(=O)NCc3ccccn3)c2)n1 [Compound 956] | < 0.886 µM |
| COc1cc(Nc2ncnc(-n3c(NCc4ccc(Cl)cc4C)nc4ccccc43)n2)cc(OC)c1OC [Compound 597] | 6.58 to 8.46 µM |
| CN(c1cccc(Cl)c1)c1ncnc(Nc2cccc(CNC(=O)O[C@@H]3CCOC3)c2)n1 [Compound 721] | 7.69 to 9.89 µM |

-- ask Given the entry NC(=O)Cc1ccc(Nc2ncnc(Nc3cc(-c4ccccc4)n[nH]3)n2)cc1 [Compound 573] , report its measured IC50.
-- reply < 1.04 µM

-- ask Query (molecule): COc1cc(Nc2ncnc(-n3c(NCc4ccc(OC(F)(F)F)cc4)nc4ccccc43)n2)cc(OC)c1OC [Compound 571] ; field requested: IC50
-- reply > 7.93 µM

-- ask Entry under review: COc1ccc([C@@H](C)Nc2nc3ccccc3n2-c2ncnc(Nc3cc(OC)c(OC)c(OC)c3)n2)cc1 [Compound 1045] . Reported IC50?
-- reply > 8.53 µM

-- ask Please report the recorded IC50 for COC(=O)c1ccc(-c2cc(Nc3ncnc(Nc4cccc(CC(N)=O)c4)n3)[nH]n2)cc1 [Compound 577] .
-- reply < 0.9 µM

-- ask Looking for the measured IC50 of COc1cc(Nc2ncnc(-n3c(NCc4nc5ccccc5[nH]4)nc4ccccc43)n2)cc(OC)c1OC [Compound 954] , can you help?
-- reply 6.69 to 8.6 µM

-- ask What value of IC50 has been reported for the following molecule? COc1cc(Nc2ncnc(Nc3cc(-c4cccc(C(F)(F)F)c4)n[nH]3)n2)cc(OC)c1OC [Compound 1000]
-- reply 0.821 to 4.92 µM

-- ask # IC50 lookup, item COc1cc(Nc2ncnc(NCCc3ccccc3)n2)cc(OC)c1OC [Compound 628]
-- reply 1.05 to 6.29 µM

-- ask I'd like to know its IC50. The molecule in question is COc1cc(Nc2ncnc(Nc3cccc4ccccc34)n2)cc(OC)c1OCCN1CCOCC1 [Compound 1041]
-- reply 0.796 to 4.78 µM

-- ask // IC50 lookup, key: COc1cc(Nc2ncnc(Nc3cccc(CN4CCN(C)CC4)c3)n2)cc(OC)c1OC [Compound 1047]
-- reply > 9.67 µM

-- ask Returns the measured IC50 for the input molecule. Input: O=C(O)Cc1cccc(Nc2ncnc(Nc3cc(-c4ccco4)n[nH]3)n2)c1 [Compound 983]
-- reply 1.06 to 6.36 µM
